The following compounds are shown together with reported Ratio values.
Assay Protocol: Ratio of rate of irreversible step k2 to Ki for subtilisin using fluorogenic Suc-Ala-Ala-Pro-Phe-AMC as substrate by spectrofluorometry
Observation Type: Ratio

[[record]]
compound = "CC(C)CC(NC(=O)OCc1ccccc1)C(=O)NC(CCC(N)=O)P(=O)(Oc1ccc(C(C)(C)C)cc1)Oc1ccc(C(C)(C)C)cc1 (racemic)"
value_observed = "< 10 M⁻¹ s⁻¹"

[[record]]
compound = "COc1ccc(OP(=O)(Oc2ccc(OC)cc2)C(CCC(N)=O)NC(=O)OCc2ccccc2)cc1 (racemic)"
value_observed = "33 M⁻¹ s⁻¹"

[[record]]
compound = "COc1ccc(OP(=O)(Oc2ccc(OC)cc2)C(CCC(N)=O)NC(=O)C(CC(C)C)NC(=O)OCc2ccccc2)cc1 (mixture of isomers)"
value_observed = "57 M⁻¹ s⁻¹"

[[record]]
compound = "CCc1ccc(OP(=O)(Oc2ccc(CC)cc2)C(CCC(N)=O)NC(=O)OCc2ccccc2)cc1 (racemic)"
value_observed = "< 10 M⁻¹ s⁻¹"

[[record]]
compound = "NC(=O)CCC(NC(=O)OCc1ccccc1)P(=O)(Oc1ccccc1)Oc1ccccc1 (racemic)"
value_observed = "< 10 M⁻¹ s⁻¹"

[[record]]
compound = "CC(C)CC(NC(=O)OCc1ccccc1)C(=O)NC(CCC(N)=O)P(=O)(Oc1ccccc1)Oc1ccccc1 (mixture of isomers)"
value_observed = "< 10 M⁻¹ s⁻¹"

[[record]]
compound = "CCc1ccc(OP(=O)(Oc2ccc(CC)cc2)C(CCC(N)=O)NC(=O)C(CC(C)C)NC(=O)OCc2ccccc2)cc1 (mixture of isomers)"
value_observed = "< 10 M⁻¹ s⁻¹"

